Biological target: STK11 (human)
Test: KINOMEscan competition binding
Details: compound 10.0 µM
experimental-endpoint: kinase still bound, per cent of control (%)
Supply the numeric figure in %, leaving out any unit text.

Answered cases to consult:
structure-smiles-string	target	experimental-endpoint	observed-result
CS(=O)(=O)N1CCN(Cc2cc3nc(-c4cccc5[nH]ncc45)nc(N4CCOCC4)c3s2)CC1	STK11 (human)	kinase still bound, per cent of control	100
CN(C)C/C=C/C(=O)Nc1ccc(C(=O)Nc2cccc(Nc3nccc(-c4cccnc4)n3)c2)cc1	STK11 (human)	kinase still bound, per cent of control	83
C[C@@H](Oc1cc(-c2cnn(C3CCNCC3)c2)cnc1N)c1c(Cl)ccc(F)c1Cl	STK11 (human)	kinase still bound, per cent of control	57
COc1cc(C(=O)N2CCC(N3CCN(C)CC3)CC2)ccc1Nc1ncc2c(n1)N(C)c1ccccc1C(=O)N2C	STK11 (human)	kinase still bound, per cent of control	96
CNC(=O)c1ccc(Nc2cc(Nc3ccccc3S(=O)(=O)C(C)C)c3cc[nH]c3n2)nc1	STK11 (human)	kinase still bound, per cent of control	18

Form field - read-out: kinase still bound, per cent of control; system: STK11 (human); submitted item: COc1cc(N2CCN(C)CC2)ccc1Nc1ncc2c(n1)N(C)c1ccccc1C(=O)N2C
100

Form field - read-out: kinase still bound, per cent of control; system: STK11 (human); submitted item: COc1ccc(N(C(=O)Oc2c(C)cccc2C)c2ccnc(Nc3ccc(N4CCN(C)CC4)cc3)n2)c(OC)c1
60

Form field - read-out: kinase still bound, per cent of control; system: STK11 (human); submitted item: Cc1n[nH]c2ccc(-c3cncc(OC[C@@H](N)Cc4c[nH]c5ccccc45)c3)cc12
30

Form field - read-out: kinase still bound, per cent of control; system: STK11 (human); submitted item: CNC(=O)c1cc(Oc2ccc(NC(=O)Nc3ccc(Cl)c(C(F)(F)F)c3)cc2)ccn1
76

The reported numbers originate from the kinase profiling compilation of Christmann-Franck et al. (2016).
